Tested on: MSTO-211H cells
procedure.summary: Cell proliferation inhibition experiment (CellTiter-Glo)
Type: cell-based
condition.label: Homo sapiens, 96 hours, read-out: Inhibitory activity of each compound on the proliferation of MSTO-211H cells (grades of IC50 values)
attribute.measured: IC50

// query Hello, I am looking for reported IC50 with MSTO-211H cells for CNC[C@@]1(c2ccccc2)Cc2c(cc(F)c(Cl)c2-c2c(C(N)=O)cn3cc(C)nc3c2F)O1 (atropisomer, axis not shown) [Compound I-16] . Could you help?
// result < 200 nM

// query Hello, I am looking for reported IC50 with MSTO-211H cells for NC(=O)c1cc2c(c(F)c1-c1c(Cl)c(F)cc3c1C[C@](c1ccccc1)([C@@H]1CCCN1)O3)Oc1c(cnn(CCC(F)(F)F)c1=O)O2 (atropisomer, axis not shown) [Compound 133] . Could you help?
// result < 200 nM
